Test system: Bean
PROCEDURE DETAILS: Post-emergent herbicidal test, bean
Format: in vivo
Design: key: 1: no perceptible injury; 2: intermediate degrees of injury; 3: intermediate degrees of injury; 4: intermediate degrees of injury; 5: the plant was dead
EXPERIMENTAL PARAMETERS: Table II; 2500 parts per million, after ten days
RESULT TYPE: Post-emergent Herbicidal, Bean
One number for each entry.

Recorded results for 2 compounds are shown here.
Cc1ccc(C)c(C2=C(OC(=O)C(C)(C)C)C3CCCCC3C2=O)c1 (stereo not drawn) : 1
CCCCC(CC)C(=O)OC1=C(c2ccc(C)cc2C)C(=O)CC1 (stereo not drawn) : 2

The following compounds each have a reported value; give each one's Post-emergent Herbicidal, Bean.
1. CCCCCCCCCCCCCCCC(=O)OC1=C(c2ccc(Cl)cc2Cl)C(=O)CC1
2. CCCCC(CC)C(=O)OC1=C(c2ccc(C)cc2C)C(=O)C2CCCCC12 (stereo not drawn)
3. CC(=O)OC1=C(c2ccc(Cl)cc2Cl)C(=O)CC1
4. CCCCCCCCCCCCCCCC(=O)OC1=C(c2cc(C)ccc2C)C(=O)C2CCCCC12 (stereo not drawn)
5. Cc1ccc(C)c(C2=C(OC(=O)C(C)C)C3CCCCC3C2=O)c1 (stereo not drawn)
6. CCCCCCCCCC(=O)OC1=C(c2ccccc2C)C(=O)C2CCCCC12 (stereo not drawn)
7. CCCCC(CC)C(=O)OC1=C(c2ccccc2C)C(=O)CC1 (stereo not drawn)

Result:
[1, 2, 2, 1, 1, 2, 2]

// for each compound below, give its Post-emergent Herbicidal, Bean
1. CCCCCCCCCCCCCCCC(=O)OC1=C(c2ccccc2C)C(=O)CC1
2. CCCCC(CC)C(=O)OC1=C(c2cc(C)ccc2C)C(=O)C(C)C1 (stereo not drawn)
3. CCCCC(CC)C(=O)OC1=C(c2cc(C)ccc2C)C(=O)CC1 (stereo not drawn)
4. CC(=O)OC1=C(c2ccccc2C)C(=O)C2CCCCC12 (stereo not drawn)
5. CCCCC(CC)C(=O)OC1=C(c2ccccc2Cl)C(=O)CC1 (stereo not drawn)
6. Cc1ccc(C2=C(OC(=O)c3ccccc3)CCC2=O)c(C)c1
7. Cc1ccccc1C1=C(OC(=O)C(C)C)C2CCCCC2C1=O (stereo not drawn)

Result:
1. 3
2. 3
3. 2
4. 3
5. 3
6. 3
7. 3

Would you be so kind as to report Post-emergent Herbicidal, Bean for each listed record?
1. Cc1ccc(C2=C(OC(=O)c3ccccc3)C3CCCCC3C2=O)c(C)c1 (stereo not drawn)
2. CCCCCCCCCCCCCCCC(=O)OC1=C(c2cc(C)ccc2C)C(=O)CC1

Result:
1. 1
2. 2
